System: HUVEC/MSC spheroids viability
TEST: Human HUVEC/MSC cell line growth inhibition [KRAS2];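 also: percent of DMSO vehicle control luminescence so 100% = untreated viability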
MEASUREMENT_CONTEXT: second compound 3.16 µM; first compound 0.001 µM; stronger effect = lower value
MEASURED_ENDPOINT: viability, T/C (%)

COMPOUND: CC(C)n1nc(-c2ccc3oc(N)nc3c2)c2c(N)ncnc21 + CC1OCC2(CCN(c3cnc(Sc4ccnc(N)c4Cl)c(N)n3)CC2)C1N
ASSAY_TARGET: HUVEC/MSC spheroids viability
RESULT_NUMBER: 60
--
COMPOUND: CN(C)C/C=C/C(=O)Nc1cc2c(Nc3ccc(F)c(Cl)c3)ncnc2cc1O[C@H]1CCOC1 + CC1OCC2(CCN(c3cnc(Sc4ccnc(N)c4Cl)c(N)n3)CC2)C1N
ASSAY_TARGET: HUVEC/MSC spheroids viability
RESULT_NUMBER: 96.2
--
COMPOUND: CN(C)C/C=C/C(=O)Nc1cc2c(Nc3ccc(F)c(Cl)c3)ncnc2cc1O[C@H]1CCOC1 + C=CC(=O)N1CCN(c2nc(=O)n(-c3c(C)ccnc3C(C)C)c3nc(-c4c(O)cccc4F)c(F)cc23)C(C)C1
ASSAY_TARGET: HUVEC/MSC spheroids viability
RESULT_NUMBER: 129
--
COMPOUND: CN(C)C/C=C/C(=O)Nc1cc2c(Nc3ccc(F)c(Cl)c3)ncnc2cc1O[C@H]1CCOC1 + COc1cc2nc(C)nc(NC(C)c3cc(N)cc(C(F)(F)F)c3)c2cc1OC1CCOC1
ASSAY_TARGET: HUVEC/MSC spheroids viability
RESULT_NUMBER: 99.1
--
COMPOUND: Cn1ncnc1[C@H]1c2n[nH]c(=O)c3cc(F)cc(c23)N[C@@H]1c1ccc(F)cc1 + C=CC(=O)N1CCN(c2nc(=O)n(-c3c(C)ccnc3C(C)C)c3nc(-c4c(O)cccc4F)c(F)cc23)C(C)C1
ASSAY_TARGET: HUVEC/MSC spheroids viability
RESULT_NUMBER: 141
--
COMPOUND: Cn1ncnc1[C@H]1c2n[nH]c(=O)c3cc(F)cc(c23)N[C@@H]1c1ccc(F)cc1 + COc1cc2nc(C)nc(NC(C)c3cc(N)cc(C(F)(F)F)c3)c2cc1OC1CCOC1
ASSAY_TARGET: HUVEC/MSC spheroids viability
RESULT_NUMBER: 104
--
COMPOUND: CN(C)C/C=C/C(=O)Nc1cc2c(Nc3ccc(F)c(Cl)c3)ncnc2cc1O[C@H]1CCOC1 + CNCc1ccccc1-c1csc(C(C)Nc2nc(C)nc3cc(OC)c(OC)cc23)c1
ASSAY_TARGET: HUVEC/MSC spheroids viability
RESULT_NUMBER: 94.4
--
COMPOUND: Cn1ncnc1[C@H]1c2n[nH]c(=O)c3cc(F)cc(c23)N[C@@H]1c1ccc(F)cc1 + CC1OCC2(CCN(c3cnc(Sc4ccnc(N)c4Cl)c(N)n3)CC2)C1N
ASSAY_TARGET: HUVEC/MSC spheroids viability
RESULT_NUMBER: 94.4
--
COMPOUND: CC(C)n1nc(-c2ccc3oc(N)nc3c2)c2c(N)ncnc21 + COc1cc2nc(C)nc(NC(C)c3cc(N)cc(C(F)(F)F)c3)c2cc1OC1CCOC1
ASSAY_TARGET: HUVEC/MSC spheroids viability
RESULT_NUMBER: 71.8
--
COMPOUND: Cn1ncnc1[C@H]1c2n[nH]c(=O)c3cc(F)cc(c23)N[C@@H]1c1ccc(F)cc1 + CNCc1ccccc1-c1csc(C(C)Nc2nc(C)nc3cc(OC)c(OC)cc23)c1
ASSAY_TARGET: HUVEC/MSC spheroids viability
RESULT_NUMBER: 86.8
--
COMPOUND: CC(C)n1nc(-c2ccc3oc(N)nc3c2)c2c(N)ncnc21 + CNCc1ccccc1-c1csc(C(C)Nc2nc(C)nc3cc(OC)c(OC)cc23)c1
ASSAY_TARGET: HUVEC/MSC spheroids viability
RESULT_NUMBER: 79
--
COMPOUND: CC(C)n1nc(-c2ccc3oc(N)nc3c2)c2c(N)ncnc21 + C=CC(=O)N1CCN(c2nc(=O)n(-c3c(C)ccnc3C(C)C)c3nc(-c4c(O)cccc4F)c(F)cc23)C(C)C1
ASSAY_TARGET: HUVEC/MSC spheroids viability
RESULT_NUMBER: 74.9
